Target: human HSL (Homo sapiens, UniProt Q05469)
Construct: generate a full length human HSL ORF with a 3′-His6 tag
Sequence (Q05469 1-1076): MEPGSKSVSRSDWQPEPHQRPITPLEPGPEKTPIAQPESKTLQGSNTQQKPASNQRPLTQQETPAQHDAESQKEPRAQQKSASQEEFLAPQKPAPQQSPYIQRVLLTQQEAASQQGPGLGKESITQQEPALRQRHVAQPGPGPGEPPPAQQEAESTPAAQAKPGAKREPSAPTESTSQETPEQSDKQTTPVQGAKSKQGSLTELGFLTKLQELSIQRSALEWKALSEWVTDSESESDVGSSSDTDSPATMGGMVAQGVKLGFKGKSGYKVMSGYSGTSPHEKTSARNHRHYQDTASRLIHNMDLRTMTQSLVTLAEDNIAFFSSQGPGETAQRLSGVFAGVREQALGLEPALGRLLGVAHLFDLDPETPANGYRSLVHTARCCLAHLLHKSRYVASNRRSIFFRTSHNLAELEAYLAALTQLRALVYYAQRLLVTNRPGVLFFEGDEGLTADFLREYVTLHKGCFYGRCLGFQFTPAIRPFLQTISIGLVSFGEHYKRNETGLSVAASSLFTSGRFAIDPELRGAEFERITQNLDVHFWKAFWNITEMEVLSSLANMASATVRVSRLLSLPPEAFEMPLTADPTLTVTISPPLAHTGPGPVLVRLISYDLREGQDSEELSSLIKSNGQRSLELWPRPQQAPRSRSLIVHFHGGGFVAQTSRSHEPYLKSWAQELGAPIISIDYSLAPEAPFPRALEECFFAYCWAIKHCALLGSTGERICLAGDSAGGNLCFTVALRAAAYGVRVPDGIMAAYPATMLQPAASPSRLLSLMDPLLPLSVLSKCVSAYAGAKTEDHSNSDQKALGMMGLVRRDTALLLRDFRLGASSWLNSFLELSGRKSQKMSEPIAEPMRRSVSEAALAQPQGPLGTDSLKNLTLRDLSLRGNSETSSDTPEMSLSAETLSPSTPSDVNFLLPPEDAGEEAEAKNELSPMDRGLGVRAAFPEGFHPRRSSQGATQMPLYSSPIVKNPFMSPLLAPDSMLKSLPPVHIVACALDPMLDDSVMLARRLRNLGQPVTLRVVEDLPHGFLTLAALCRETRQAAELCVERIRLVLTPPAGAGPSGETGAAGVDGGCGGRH
Test: Human Hormone-Sensitive Lipase (HSL) enzyme inhibition assay (colorimetric, DMPT substrate)
Settings: human full length HSL-His6, 2,3-dimercapto-1-propanol tributyrate substrate, 37° C. 20 minutes, absorbance at 405 nm; read-out: HSL hum IC50
Provide the recorded pIC50 for the entries that follow.
pIC50 (log units): -log10 of the concentration in mol/L.

Task: Returns the measured pIC50 for the input compound. Input: CC[C@]1(O)CC[C@]2(CCN(c3ccc(O[C@H](C)C(F)(F)F)nc3)C2=O)CC1 [Example 175]
Result: 7.40

Task: Returns the measured pIC50 for the input compound. Input: CC(C)[C@]1(O)CC[C@]2(CCN(c3ccc(OCC(F)(F)F)cc3)C2=O)CC1 [Example 103]
Result: 7.70

Task: Returns the measured pIC50 for the input compound. Input: O=C1N(c2ccc(OC(F)(F)F)cc2)CC[C@]12CC[C@H](O)CC2 [Example 2]
Result: 6.82

Task: Returns the measured pIC50 for the input compound. Input: CCC[C@]1(O)CC[C@]2(CCN(c3ccc(OC(C)C)cc3)C2=O)CC1 [Example 184]
Result: 7.70
